Data provenance is the supplement of paper PMC3334620.

- target desc: Ybr033w (UniProt P38073)
- Sequence: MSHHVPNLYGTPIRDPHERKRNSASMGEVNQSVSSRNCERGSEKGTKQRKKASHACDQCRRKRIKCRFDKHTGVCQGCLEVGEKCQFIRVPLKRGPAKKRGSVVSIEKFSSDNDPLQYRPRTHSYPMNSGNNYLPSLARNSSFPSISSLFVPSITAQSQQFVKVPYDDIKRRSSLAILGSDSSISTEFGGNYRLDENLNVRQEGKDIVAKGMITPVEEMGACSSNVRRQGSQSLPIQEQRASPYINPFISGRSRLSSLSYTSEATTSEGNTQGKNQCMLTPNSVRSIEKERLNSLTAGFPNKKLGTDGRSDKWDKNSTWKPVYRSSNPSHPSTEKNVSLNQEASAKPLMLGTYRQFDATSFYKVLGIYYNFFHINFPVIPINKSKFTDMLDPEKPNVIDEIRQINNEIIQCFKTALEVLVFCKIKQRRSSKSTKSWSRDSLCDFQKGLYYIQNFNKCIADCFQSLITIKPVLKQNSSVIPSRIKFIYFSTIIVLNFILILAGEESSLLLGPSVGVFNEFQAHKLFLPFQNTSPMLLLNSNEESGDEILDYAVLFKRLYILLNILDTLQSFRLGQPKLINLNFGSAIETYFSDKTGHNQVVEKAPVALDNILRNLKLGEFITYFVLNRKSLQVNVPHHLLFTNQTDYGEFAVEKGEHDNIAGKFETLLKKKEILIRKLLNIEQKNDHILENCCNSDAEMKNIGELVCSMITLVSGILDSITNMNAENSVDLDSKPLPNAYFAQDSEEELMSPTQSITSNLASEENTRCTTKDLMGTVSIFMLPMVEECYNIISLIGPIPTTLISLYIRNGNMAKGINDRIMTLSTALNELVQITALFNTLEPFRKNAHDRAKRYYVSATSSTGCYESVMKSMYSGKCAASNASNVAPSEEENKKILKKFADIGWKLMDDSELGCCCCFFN
- assay protocol: PBM E-score (8-mer binding enrichment) (E-score (-0.5 to 0.5)); higher = stronger / more preferred TF binding
- experimental setup: protein concentration: 200 nM; construct: GST-full length
Over roughly 33,000 sequences, “E-score (-0.5 to 0.5)” has its median near -0.012; the highest 2% begin near 0.29. For the sample, the highest values were picked, then their nearest neighbours and some sequences at random.
Class boundaries, taken from values of PBM E-score, are as follows: lo: < -0.01; mid: ≥ -0.01 and < 0.1; hi: ≥ 0.1

input: Which category fits this record: "CGCCCCAA"
output: lo

input: Try this sequence next: "AGTGGTAG"
output: mid

input: Try this sequence next: "GATACCAC"
output: mid

input: Try this sequence next: "CTAGCGAG"
output: lo

input: Try this sequence next: "ATAATCTC"
output: hi

input: Try this sequence next: "CTAATCTC"
output: lo

input: Try this sequence next: "GCGCGCGA"
output: hi

input: Try this sequence next: "ACCGGCCA"
output: lo

input: Try this sequence next: "TACTCACA"
output: hi

input: Try this sequence next: "AAAATCTA"
output: hi

input: Try this sequence next: "GAAATCTA"
output: hi

* * *

- target desc: Ybr033w (UniProt P38073)
- Sequence: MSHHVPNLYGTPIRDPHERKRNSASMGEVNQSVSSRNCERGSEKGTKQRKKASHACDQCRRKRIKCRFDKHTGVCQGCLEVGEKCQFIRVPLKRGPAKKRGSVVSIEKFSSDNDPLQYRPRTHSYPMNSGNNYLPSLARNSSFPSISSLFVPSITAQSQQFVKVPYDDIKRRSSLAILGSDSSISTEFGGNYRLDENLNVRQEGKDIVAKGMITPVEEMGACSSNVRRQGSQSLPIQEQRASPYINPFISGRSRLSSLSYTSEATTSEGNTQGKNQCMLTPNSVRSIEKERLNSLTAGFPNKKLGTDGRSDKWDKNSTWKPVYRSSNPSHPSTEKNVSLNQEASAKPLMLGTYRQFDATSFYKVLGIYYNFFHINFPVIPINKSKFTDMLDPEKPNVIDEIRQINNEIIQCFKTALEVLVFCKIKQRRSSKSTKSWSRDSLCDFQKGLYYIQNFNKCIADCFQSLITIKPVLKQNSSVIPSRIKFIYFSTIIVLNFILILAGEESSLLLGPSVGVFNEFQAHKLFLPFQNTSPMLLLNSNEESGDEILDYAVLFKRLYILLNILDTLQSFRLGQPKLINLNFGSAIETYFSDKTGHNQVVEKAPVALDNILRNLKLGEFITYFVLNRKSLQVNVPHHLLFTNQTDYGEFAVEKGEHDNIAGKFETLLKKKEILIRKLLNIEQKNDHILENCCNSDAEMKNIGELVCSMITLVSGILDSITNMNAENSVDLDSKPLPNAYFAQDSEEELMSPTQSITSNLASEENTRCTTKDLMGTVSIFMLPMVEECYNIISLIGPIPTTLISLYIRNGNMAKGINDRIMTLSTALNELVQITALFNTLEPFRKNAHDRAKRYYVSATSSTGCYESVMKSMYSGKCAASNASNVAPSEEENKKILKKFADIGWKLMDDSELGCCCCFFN
- assay protocol: PBM E-score (8-mer binding enrichment) (E-score (-0.5 to 0.5)); higher = stronger / more preferred TF binding
- experimental setup: protein concentration: 200 nM; construct: GST-full length
In all, about 33,000 sequences were measured (“E-score (-0.5 to 0.5)”: median about -0.012, highest 2% from about 0.29 on). This excerpt belongs to a sample that is enriched for the highest values.
Would you kindly list PBM E-score for each of these sequences?
# respond with the number and nothing more

input: What measured PBM E-score goes with "AGCATAAA" ?
output: 0.141

input: Try this sequence next: "AAATAGTT"
output: 0.227

input: Try this sequence next: "AGATATAG"
output: 0.171

input: Try this sequence next: "TGCATAAA"
output: 0.218

input: Try this sequence next: "ATTAATGA"
output: 0.354

input: Try this sequence next: "CGCATAAA"
output: 0.297

input: Try this sequence next: "AGTATAAA"
output: 0.266

input: Try this sequence next: "AAATATGG"
output: 0.12

input: Try this sequence next: "TCCATCAA"
output: 0.312

input: Try this sequence next: "AACATCAA"
output: 0.319

input: Try this sequence next: "CATATAAG"
output: 0.114

input: Try this sequence next: "AATTGATA"
output: 0.255

input: Try this sequence next: "CGTATAAA"
output: 0.291

input: Try this sequence next: "AGCACAAG"
output: -0.0143

input: Try this sequence next: "AAATATAG"
output: 0.305

input: Try this sequence next: "ATGTGGCG"
output: -0.018

input: Try this sequence next: "ACTTGTTC"
output: 0.25

input: Try this sequence next: "ACTAATTC"
output: 0.221

input: Try this sequence next: "AACGGCTC"
output: -0.0166

input: Try this sequence next: "CATATAAA"
output: 0.174

input: Try this sequence next: "AGTGAAAA"
output: 0.183

input: Try this sequence next: "ATTCTGAA"
output: 0.187

input: Try this sequence next: "AAATAGTG"
output: 0.292

input: Try this sequence next: "AGTAATTA"
output: 0.232

input: Try this sequence next: "AACTATAT"
output: 0.335

input: Try this sequence next: "AATATAAG"
output: 0.295

input: Try this sequence next: "CAGAGTGC"
output: -0.126

input: Try this sequence next: "AATAATGG"
output: 0.162

input: Try this sequence next: "GAAGCGCC"
output: -0.0866

input: Try this sequence next: "ACTTAGCA"
output: 0.00122

input: Try this sequence next: "AATTGATG"
output: 0.309

input: Try this sequence next: "CCCCTTCG"
output: -0.317

input: Try this sequence next: "CTATATAG"
output: 0.0604

input: Try this sequence next: "AATTGATC"
output: 0.354

input: Try this sequence next: "GAGTAGTA"
output: 0.163

input: Try this sequence next: "AGTAATTG"
output: 0.129

input: Try this sequence next: "CACTTTTC"
output: 0.255

input: Try this sequence next: "AATATAAA"
output: 0.344

input: Try this sequence next: "TGTTCTAA"
output: 0.181

input: Try this sequence next: "GACATCAA"
output: 0.0415

input: Try this sequence next: "ATATATAG"
output: 0.332

input: Try this sequence next: "AGTAATTC"
output: 0.318

input: Try this sequence next: "ATTAATGG"
output: 0.289

input: Try this sequence next: "AAATAGTC"
output: 0.0679

input: Try this sequence next: "AAGATTTC"
output: 0.169

input: Try this sequence next: "CTTAATGA"
output: -0.0192
